Quick reference: Relative Binding Affinity' (%) of the listed items.
Biological target: progesterone receptor (Oryctolagus cuniculus, UniProt P06186)
Construct: 'Rabbit, progesterone = 100%; from tissue; host or cells: Rabbit; From own knowledge, the cited Philibert procedure uses uterine cytosol
Assay: progesterone receptor relative binding affinity (procedure of Philibert et al.)
Settings: Rabbit, progesterone = 100%
Just the number please, in %, no unit attached.

Example entries and their recorded answers appear below.
{"COMPOUND": "CC#C[C@]1(O)CC[C@H]2[C@H]3[C@H]([C@@H](C(F)F)C[C@@]21C)[C@H]1CCC(=O)C=C1C[C@H]3C", "VALUE UNITS": "%", "Relative Binding Affinity' (%)": 41}
{"COMPOUND": "CC#CC1(OC(C)=O)CCC2C3CCC4=CC(=O)CCC4C3C(C(F)F)CC21C (centres unmarked)", "VALUE UNITS": "%", "Relative Binding Affinity' (%)": 49}
{"COMPOUND": "C#CC1(OC)CCC2C3CCC4=CC(=O)CCC4C3C(C(F)F)CC21C (centres unmarked)", "VALUE UNITS": "%", "Relative Binding Affinity' (%)": 145}

Asked: # Relative Binding Affinity' (%) lookup, item C[C@]12C[C@H](C(F)F)[C@H]3[C@@H](CCC4=CC(=O)CC[C@@H]43)[C@@H]1CC[C@@H]2O
Given back: 13

Asked: # Relative Binding Affinity' (%) lookup, item C#C[C@]1(O)CC[C@H]2[C@H]3[C@H](/C(=C/F)C[C@@]21C)[C@H]1CCC(=O)C=C1C[C@H]3C
Given back: 34

Asked: # Relative Binding Affinity' (%) lookup, item CC#C[C@]1(O)CC[C@H]2[C@@H]3CCC4=CC(=O)CC[C@@H]4[C@H]3[C@@H](C(F)F)C[C@@]21C
Given back: 68

Asked: # Relative Binding Affinity' (%) lookup, item CC#C[C@]1(O)CC[C@H]2[C@@H]3CCC4C=CCC[C@@H]4[C@H]3[C@@H](C(F)F)C[C@@]21C (some centres unmarked)
Given back: 2

Asked: # Relative Binding Affinity' (%) lookup, item C#C[C@]1(O)CC[C@H]2[C@@H]3CCC4=CC(=O)CC[C@@H]4[C@H]3/C(=C/F)C[C@@]21C
Given back: 74

Asked: # Relative Binding Affinity' (%) lookup, item CO[C@H]1CC[C@H]2[C@@H]3CCC4=CC(=O)CC[C@@H]4[C@H]3[C@@H](C(F)F)C[C@]12C
Given back: 66

Asked: # Relative Binding Affinity' (%) lookup, item CC#C[C@]1(O)CC[C@H]2[C@@H]3CCC4=CCCC[C@@H]4[C@H]3[C@@H](C(F)F)C[C@@]21C
Given back: 3

Asked: # Relative Binding Affinity' (%) lookup, item C#CC1(OC(C)=O)CCC2C3CCC4=CC(=O)CCC4C3C(C(F)F)CC21C (centres unmarked)
Given back: 50

Asked: # Relative Binding Affinity' (%) lookup, item CC#C[C@]1(O)CC[C@H]2[C@@H]3CCC4=CC(=O)CC[C@@H]4[C@H]3/C(=C/F)C[C@@]21CC
Given back: 63

====

Target: progesterone receptor (Oryctolagus cuniculus)
Construct: 'Rabbit, progesterone = 100%; from tissue; host or cells: Rabbit; From own knowledge, the cited Philibert procedure uses uterine cytosol
Sequence (P06186 1-930): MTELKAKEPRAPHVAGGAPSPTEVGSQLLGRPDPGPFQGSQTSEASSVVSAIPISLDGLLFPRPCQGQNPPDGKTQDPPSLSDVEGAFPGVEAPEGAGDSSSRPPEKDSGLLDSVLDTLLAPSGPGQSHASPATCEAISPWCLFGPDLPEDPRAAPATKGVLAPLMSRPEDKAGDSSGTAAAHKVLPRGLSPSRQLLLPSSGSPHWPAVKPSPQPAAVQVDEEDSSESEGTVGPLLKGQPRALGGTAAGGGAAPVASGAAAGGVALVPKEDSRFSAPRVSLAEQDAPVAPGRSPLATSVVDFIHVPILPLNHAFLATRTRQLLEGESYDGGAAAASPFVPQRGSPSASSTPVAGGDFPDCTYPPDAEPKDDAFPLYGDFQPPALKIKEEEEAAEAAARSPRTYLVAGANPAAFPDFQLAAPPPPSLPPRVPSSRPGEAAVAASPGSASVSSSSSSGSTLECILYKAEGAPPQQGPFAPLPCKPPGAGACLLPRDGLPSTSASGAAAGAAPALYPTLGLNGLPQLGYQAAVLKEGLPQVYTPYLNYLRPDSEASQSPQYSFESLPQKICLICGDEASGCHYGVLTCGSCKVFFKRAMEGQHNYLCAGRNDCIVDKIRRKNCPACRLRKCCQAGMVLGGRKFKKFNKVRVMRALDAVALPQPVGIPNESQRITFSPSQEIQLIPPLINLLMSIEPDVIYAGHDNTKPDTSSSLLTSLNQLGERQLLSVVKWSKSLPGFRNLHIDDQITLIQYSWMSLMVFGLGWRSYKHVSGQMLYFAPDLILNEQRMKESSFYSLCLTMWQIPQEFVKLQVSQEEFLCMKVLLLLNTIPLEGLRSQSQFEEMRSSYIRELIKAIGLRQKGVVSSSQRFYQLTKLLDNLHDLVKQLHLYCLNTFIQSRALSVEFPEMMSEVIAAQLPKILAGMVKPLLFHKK
Test: progesterone receptor relative binding affinity (procedure of Philibert et al.)
Conditions: Rabbit, progesterone = 100%
I would appreciate it if you labelled entries True when Relative Binding Affinity' (%) is 60% or higher, otherwise False.

Observe how each entry below is paired with its result.
{"COMPOUND": "CC#C[C@]1(O)CC[C@H]2[C@@H]3CCC4=CC(=O)CC[C@@H]4[C@H]3/C(=C\\F)C[C@@]21C", "CLASSIFICATION": "True"}
{"COMPOUND": "C#C[C@]1(O)CC[C@H]2[C@H]3[C@H]([C@@H](C(F)F)C[C@@]21C)[C@H]1CCC(=O)C=C1C[C@H]3C", "CLASSIFICATION": "True"}
{"COMPOUND": "CC#C[C@]1(O)CC[C@H]2[C@H]3[C@H](/C(=C/F)C[C@@]21C)[C@H]1CCC(=O)C=C1C[C@H]3C", "CLASSIFICATION": "False"}
{"COMPOUND": "CC#C[C@]1(O)CC[C@H]2[C@@H]3CCC4=CC(=O)CC[C@@H]4[C@H]3/C(=C\\F)C[C@@]21CC", "CLASSIFICATION": "True"}

Attention now shifts to the item below.
Asked: Decide: is the reported value of Relative Binding Affinity' (%) for CC#CC1(OC)CCC2C3CCC4=CC(=O)CCC4C3C(C(F)F)CC21C (centres unmarked) equal to or greater than 60%?
Given back: True

Just for reference, patent EP0145493A2 is where these values come from.
